Target: T1, NFIL3 A113V (human, UniProt Q16649 65-161, A113V)
T1 sequence: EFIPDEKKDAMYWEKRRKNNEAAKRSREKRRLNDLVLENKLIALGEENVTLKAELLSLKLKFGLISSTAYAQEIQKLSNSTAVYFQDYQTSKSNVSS
Test: ITC; ITC: 20 mM Tris pH 7.5, 150 mM NaCl, 25 °C; EMSA: same buffer, 4 °C, 6% native gel in 0.5x TBE
Settings: protein: recombinant; tags: His6-SUMO removed by TEV; chain copies: 2; blunt
measured_property: Kd (nM)
Field: numeric (nM). Do not append units.

IN: Please look up its Kd: TTACGTAA (dsDNA) DNA 1: CATTACGTAATG DNA 2: CATTACGTAATG
OUT: 120

The reported measurements were obtained from paper PMC10941009.
